IC50 for assorted compounds
EXPERIMENTAL_TARGET: PI3K γ (Homo sapiens, UniProt P48736)
Sequence (P48736 whole entry, species assumed): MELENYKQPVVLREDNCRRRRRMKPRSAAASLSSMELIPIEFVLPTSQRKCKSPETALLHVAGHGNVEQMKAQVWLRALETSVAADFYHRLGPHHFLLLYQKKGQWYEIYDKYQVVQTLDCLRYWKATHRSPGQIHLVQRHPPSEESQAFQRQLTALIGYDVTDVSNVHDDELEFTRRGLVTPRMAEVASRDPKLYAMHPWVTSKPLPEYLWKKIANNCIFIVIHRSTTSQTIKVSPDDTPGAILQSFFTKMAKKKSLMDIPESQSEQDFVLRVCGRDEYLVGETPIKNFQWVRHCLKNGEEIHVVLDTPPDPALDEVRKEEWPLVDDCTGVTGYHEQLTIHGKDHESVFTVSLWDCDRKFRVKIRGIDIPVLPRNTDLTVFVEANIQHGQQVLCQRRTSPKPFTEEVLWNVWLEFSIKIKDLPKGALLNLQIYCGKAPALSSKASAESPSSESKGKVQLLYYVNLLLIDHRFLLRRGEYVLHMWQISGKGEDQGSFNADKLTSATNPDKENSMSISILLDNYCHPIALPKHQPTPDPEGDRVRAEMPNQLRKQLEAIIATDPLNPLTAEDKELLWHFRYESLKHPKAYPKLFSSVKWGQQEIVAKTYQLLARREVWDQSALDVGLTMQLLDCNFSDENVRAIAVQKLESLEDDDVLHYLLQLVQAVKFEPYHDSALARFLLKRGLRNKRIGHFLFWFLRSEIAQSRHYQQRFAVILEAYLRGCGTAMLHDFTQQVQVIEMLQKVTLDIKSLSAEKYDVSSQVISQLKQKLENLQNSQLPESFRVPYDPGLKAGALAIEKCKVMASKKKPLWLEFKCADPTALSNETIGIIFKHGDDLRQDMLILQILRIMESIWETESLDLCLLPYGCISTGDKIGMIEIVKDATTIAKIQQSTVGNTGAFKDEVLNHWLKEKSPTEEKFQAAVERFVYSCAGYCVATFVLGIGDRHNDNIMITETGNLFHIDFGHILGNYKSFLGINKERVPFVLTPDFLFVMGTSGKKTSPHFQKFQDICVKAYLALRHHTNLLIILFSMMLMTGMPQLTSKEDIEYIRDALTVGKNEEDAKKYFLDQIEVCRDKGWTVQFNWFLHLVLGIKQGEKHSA
ASSAY_OVERVIEW: PI3K γ kinase assay
Format: biochemical
ASSAY_CONTEXT: Table 2

The cases that follow already have their IC50 on record.
COc1cccc2cc(-c3nn(C4CCOCC4)c4ncnc(N)c34)[nH]c12 :: 10 to 25 nM
CC(C)n1nc(-c2cc3c(O)cccc3[nH]2)c2c(N)ncnc21 :: 100 to 500 nM
CC(=O)N1CCC(n2nc(-c3cc4c(Cl)ccc(O)c4[nH]3)c3c(N)ncnc32)CC1 :: > 500 nM
COc1cc(Cl)c2[nH]c(-c3nn(C4CCOCC4)c4ncnc(N)c34)cc2c1 :: > 500 nM
Nc1ncnc2c1c(-c1cc3cccc(O)c3[nH]1)nn2C1CCOCC1 :: > 500 nM

Exercise: What value of IC50 has been recorded for this entry: Nc1ncnc2c1c(-c1cc3cc(O)ccc3[nH]1)nn2CC(=O)N1CCOCC1
Solution: > 500 nM

Exercise: What value of IC50 has been recorded for this entry: Nc1ncnc2c1c(-c1cc3cc(O)cc(Cl)c3[nH]1)nn2C1CCOCC1
Solution: 25 to 50 nM

Exercise: What value of IC50 has been recorded for this entry: Nc1ncnc2c1c(-c1cc3cc(O)ccc3[nH]1)nn2CCN1CCOCC1
Solution: > 500 nM

Exercise: What value of IC50 has been recorded for this entry: CN1CCN(C2CC(n3nc(-c4cc5cc(O)ccc5[nH]4)c4c(N)ncnc43)C2)CC1 (centres unmarked)
Solution: > 500 nM

Exercise: What value of IC50 has been recorded for this entry: CC(=O)N1CCC(n2nc(-c3cc4cc(O)cc(Cl)c4[nH]3)c3c(N)ncnc32)CC1
Solution: 50 to 100 nM

Exercise: What value of IC50 has been recorded for this entry: CC(C)N1CCC(n2nc(-c3cc4c(Cl)ccc(O)c4[nH]3)c3c(N)ncnc32)CC1
Solution: > 500 nM

Exercise: What value of IC50 has been recorded for this entry: CC(C)N1CCC(n2nc(-c3cc4cc(O)cc(Cl)c4[nH]3)c3c(N)ncnc32)CC1
Solution: > 500 nM

Exercise: What value of IC50 has been recorded for this entry: CC(C)N1CCC(n2nc(-c3cc4cccc(O)c4[nH]3)c3c(N)ncnc32)CC1
Solution: 100 to 500 nM

Exercise: What value of IC50 has been recorded for this entry: Nc1ncnc2c1c(-c1cc3cccc(O)c3[nH]1)nn2C1CCN(C(=O)C2CC2)CC1
Solution: 25 to 50 nM

Exercise: What value of IC50 has been recorded for this entry: CN1CCN(C2CCC(n3nc(-c4cc5cc(O)ccc5[nH]4)c4c(N)ncnc43)CC2)CC1 (centres unmarked)
Solution: > 500 nM

Exercise: What value of IC50 has been recorded for this entry: CC(C)n1nc(-c2cc3cc(O)cc(F)c3[nH]2)c2c(N)ncnc21
Solution: 100 to 500 nM

Exercise: What value of IC50 has been recorded for this entry: Nc1ncnc2c1c(-c1cc3cc(O)ccc3[nH]1)nn2C1CC(N2CCOCC2)C1 (centres unmarked)
Solution: 100 to 500 nM
